pKd: −log10 of the molar value.
pKd values recorded for ASK1 (Homo sapiens (Human))

Sample answers from the record:
Molecule | Metric name | Reading
Cc1ccc(-c2ccc3c(c2)C(=O)Nc2cccc(n2)-c2nncn2CCCCO3)cn1 | pKd | > 8.00
COc1ccc2c(c1)C(=O)Nc1cccc(n1)-c1nncn1CCC/C=C/CO2 | pKd | 7.00 to 8.00
COc1ccc2c(c1)C(=O)Nc1cccc(n1)-c1nncn1CCCCCCO2 | pKd | > 8.00

Could you report pKd for every entry in the following list?
1. N#Cc1ccc(-c2ccc3c(c2)C(=O)Nc2cccc(n2)-c2nncn2CCCCO3)cn1
2. O=C1Nc2cccc(n2)-c2nncn2CCCCOc2cc(F)c(F)cc21

["> 8.00", "6.00 to 7.00"]

Could you report pKd for every entry in the following list?
1. Cc1ccc(-c2ccc3c(c2)C(=O)Nc2cccc(n2)-c2nncn2[C@@H](C)CCCO3)cn1
2. O=C1Nc2cccc(n2)-c2nncn2C2CC(C2)Oc2ccc(-c3ccc(C(F)F)nc3)cc21
3. O=C1Nc2cccc(n2)-c2nncn2CCCCOc2cc(F)c(Br)cc21
4. O=C1Nc2cccc(n2)-c2nncn2CCCCOc2ccc(-c3ccc(C4CC4)nc3)cc21
5. O=C1Nc2cccc(n2)-c2nncn2CCCCOc2ccc(C(F)(F)F)cc21

1: > 8.00; 2: 6.00 to 7.00; 3: 6.00 to 7.00; 4: > 8.00; 5: 7.00 to 8.00

Could you report pKd for every entry in the following list?
1. Cc1ncc(-c2ccc3c(c2)C(=O)Nc2cccc(n2)-c2nncn2CCCCO3)cc1Cl
2. O=C1Nc2cccc(n2)-c2nncn2CC=CCCOc2ccc(Br)cc21
3. O=C1Nc2cccc(n2)-c2nncn2CC=CCCCOc2ccc(Br)cc21
4. O=C1Nc2cccc(n2)-c2nncn2CCCCOc2ccc(-c3cnc(F)c(F)c3)cc21
5. Cc1cc2c(cc1-n1cnc(C3CC3)c1)C(=O)Nc1cccc(n1)-c1nncn1CCCCO2
6. Cc1ccc(-c2ccc3c(c2)C(=O)Nc2cccc(n2)-c2nncn2[C@H]2C[C@@H](CO3)C2)cn1
7. Cc1ccc(-c2ccc3c(c2)C(=O)Nc2cccc(n2)-c2nncn2C[C@H]2CC2CO3)cn1 (some centres unmarked)

["7.00 to 8.00", "> 8.00", "7.00 to 8.00", "> 8.00", "> 8.00", "> 8.00", "> 8.00"]

----------
Kd values recorded for ASK1 (Homo sapiens (Human))

Sample answers from the record:
Compound | Tested system | Reading
O=C1Nc2cccc(n2)-c2nncn2CCCCOc2ccc(-c3ccc(C(F)F)nc3)cc21 [Example 52] | ASK1 (Homo sapiens (Human)) | < 10 nM
Cc1ccc(-c2ccc3c(c2)C(=O)Nc2cccc(n2)-c2nncn2CC[C@@H](C)CO3)cn1 [Example 104] | ASK1 (Homo sapiens (Human)) | < 10 nM
Cc1ccc(-c2ccc3c(c2)C(=O)Nc2cccc(n2)-c2nncn2C[C@@H]2CC2CO3)cn1 (some centres unmarked) [Example 81] | ASK1 (Homo sapiens (Human)) | < 10 nM
O=C1Nc2cccc(n2)-c2nncn2CCCCOc2cc(F)c(-c3ccc(C4CC4)nc3)cc21 [Example 68] | ASK1 (Homo sapiens (Human)) | < 10 nM
Cc1ccc(-c2ccc3c(c2)C(=O)Nc2cccc(n2)-c2nncn2CCCOC3)cn1 [Example 70] | ASK1 (Homo sapiens (Human)) | < 10 nM

Could you report Kd for every entry in the following list?
1. O=C1Nc2cccc(n2)-c2nncn2CCCCOc2ccc(Cl)cc21 [Example 41]
2. O=C1Nc2cccc(n2)-c2nncn2CCCCOc2ccc(-c3cnc(F)c(Cl)c3)cc21 [Example 99]
3. O=C1Nc2cccc(n2)-c2nncn2C/C=C/COc2ccc(OCc3ccccc3)cc21 [Example 18]
4. Cc1ccc(-c2ccc3c(c2)C(=O)Nc2cccc(n2)-c2nncn2C2C[C@H]2CCO3)cn1 (stereo in doubt) [Example 97]
5. CC1CCCOc2ccc(-c3ccc(C4CC4)nc3)cc2C(=O)Nc2cccc(n2)-c2nncn21 (centres unmarked) [Example 50]
6. Cc1ccc(-c2ccc3c(c2)C(=O)Nc2cccc(n2)-c2nncn2[C@H]2CC[C@H](CC2)O3)cn1 [Example 71]
7. CCc1ccc(-c2ccc3c(c2)C(=O)Nc2cccc(n2)-c2nncn2CCCCO3)cn1 [Example 47]
8. O=C1Nc2cccc(n2)-c2nncn2CCCOc2ccc(-c3ccc(C4CC4)nc3)cc21 [Example 37]

1. 10 to 100 nM
2. < 10 nM
3. < 10 nM
4. < 10 nM
5. < 10 nM
6. < 10 nM
7. < 10 nM
8. < 10 nM

Could you report Kd for every entry in the following list?
1. O=C1Nc2cccc(n2)-c2nncn2CCCOc2ccc(Br)cc21 [Example 33]
2. N#Cc1ccc2c(c1)OCCCCn1cnnc1-c1cccc(n1)NC2=O [Example 96]
3. O=C1Nc2cccc(n2)-c2nncn2CC=CCCOc2ccc(-c3ccc(C4CC4)nc3)cc21 [Example 14]
4. Cc1ccc(-c2cc3c(cc2C)OCCCCn2cnnc2-c2cccc(n2)NC3=O)cn1 [Example 51]

100 to 1000 nM
10 to 100 nM
10 to 100 nM
< 10 nM

Could you report Kd for every entry in the following list?
1. Cc1ccc(-c2ccc3c(c2)C(=O)Nc2cccc(n2)-c2nncn2CCCS3)cn1 [Example 91]
2. CCc1ccc(-c2ccc3c(c2)C(=O)Nc2cccc(n2)-c2nncn2CCCOC3)cn1 [Example 102]
3. Cn1ncc2cc(-c3ccc4c(c3)C(=O)Nc3cccc(n3)-c3nncn3CCCCO4)ccc21 [Example 55]

1. > 1000 nM
2. < 10 nM
3. < 10 nM
